// data source = PubChem BioAssay (NCI)

# Test system: A498 renal
# PROTOCOL_TEXT: NCI tumour cell line growth inhibition, 48 h
Documented TGI across a set of compounds

COMPOUND	TGI
O=C(Nc1ccccc1C(=O)O)/C(=C/c1ccccc1)NC(=O)c1ccccc1	> 100 µM
Cc1cc(C)cc(Sc2c([N+](=O)[O-])ncn2C)c1	77.1 µM
O=c1cc(CC(O)(C(F)(F)Cl)C(F)(F)Cl)[nH]n1-c1ccccc1	> 100 µM
COc1ccc(N2C(=O)/C(=C\c3cccc(Oc4ccccc4)c3)S(=O)(=O)C2c2ccccc2)cc1 (stereo not given)	> 100 µM
CC1=C([Se]CC(OC(=O)[C@@H](CO)NC(=O)OC(C)(C)C)C(=O)NC(C)(C)C)C(=O)c2ccccc2C1=O (stereo not given in full)	15.2 µM
O=C(N/N=C1/C(=O)c2c3ccccc3cc3cccc1c23)c1cccc(Cl)c1	> 100 µM
CC[O-].Cc1ccc2cccc([O-])c2n1.Cc1ccc2cccc([O-])c2n1.Cc1ccc2cccc([O-])c2n1.[Ti+4]	> 100 µM
COC(=O)C(Cc1ccccc1I)C1=CCC2(CC1)OCCO2 (stereo not given)	> 100 µM

Exam item: Looking for the measured TGI of COc1ccc(-n2c(C)nc3ccc(NC4OCC(O)C(O)C4O)cc3c2=O)cc1 (stereo not given) , can you help?
Marked response: > 100 µM

Exam item: Looking for the measured TGI of "CN1c2ccccc2S(=O)(=O)n2c(COc3ccc(Cl)cc3)nnc21" , can you help?
Marked response: > 100 µM

---

# Test system: DU-145 prostate
# PROTOCOL_TEXT: NCI tumour cell line growth inhibition, 48 h; in the data active = GI50 below about 0.43 µM; inactive = the rest
# output must be one of active, inactive

COMPOUND	ASSIGNED_CLASS
N#Cc1cccc(NC(=O)c2oc3ccccc3c2-c2cnn(-c3ccccc3)c2)c1	inactive
CC1=C(/C=C/C(C)=C/C=C/C(C)=C/C(=O)Nc2ccc(O)cc2)C(C)(C)CCC1	inactive
COc1cc2c3c(n(CCN(C)C)c(=O)c2cc1OC)-c1cc2c(cc1C3=O)OCO2	active

Pending compound:
Exam item: Look up the recorded call for CCN(CC)CCCC(Nc1c2ccc(Cl)cc2nc2ccc(OC)cc12)c1ccc(F)cc1 (centres undefined) in this test.
Marked response: inactive

---

Documented GI50 across a set of molecules
# System: PC-3 prostate
# PROTOCOL_TEXT: NCI tumour cell line growth inhibition, 48 h

Reference set, count: 3
CHEM_SMILES	GI50
O=C1c2ccccc2-c2c1c1ccccc1c(=O)n2CCCN1CCN(CCCn2c3c(c4ccccc4c2=O)C(=O)c2ccccc2-3)CC1	> 100 µM
COc1c(CNC(=O)CCl)cc2[nH]c(C)cc2c1CNC(=O)CCl	12.2 µM
COc1cc2c3c(n(CCN(C)C)c(=O)c2cc1OC)-c1cc2c(cc1C3=O)OCO2	31.4 µM

Exam item: Looking for the measured GI50 of "CC(=O)OC[C@]12CC[C@@H]([C@@H](C)C(N)=O)[C@@H]1[C@H]1CC[C@@H]3[C@@]4(C)CC[C@H](OC(C)=O)C(C)(C)[C@@H]4CC[C@@]3(C)[C@]1(C)CC2" , can you help?
Marked response: 2.67 µM

---

# System: CCRF-CEM leukemia
# PROTOCOL_TEXT: NCI tumour cell line growth inhibition, 48 h; in the data active = GI50 below about 0.43 µM; inactive = the rest
# output must be one of Yes = active, No = inactive

Examples from the recorded data:
CHEM_SMILES	ASSIGNED_CLASS
C=C(C)[C@@H]1CCC2=C[C@@H](OC2=O)[C@@H](C(=C)C)C(=O)/C=C(/C)C(=O)C1	No
CC1=C(/C=C/C(C)=C/C=C/C(C)=C/C(=O)Nc2ccc(O)cc2)C(C)(C)CCC1	Yes
C/C(=C\CCc1ccoc1)CC/C=C(\C)CCCN1CCC(CO)CC1	No

Pending compound:
Exam item: Look up the recorded call for "COC(=O)Nc1nc2cc3c(cc2s1)OCCO3" in this test.
Marked response: No
